Data provenance is patent US9434764B2.

Let's look at some compounds and their measured EC50.
# TARGET SYSTEM: hMC3R (Homo sapiens, UniProt P41968)
# Sequence (P41968 whole entry): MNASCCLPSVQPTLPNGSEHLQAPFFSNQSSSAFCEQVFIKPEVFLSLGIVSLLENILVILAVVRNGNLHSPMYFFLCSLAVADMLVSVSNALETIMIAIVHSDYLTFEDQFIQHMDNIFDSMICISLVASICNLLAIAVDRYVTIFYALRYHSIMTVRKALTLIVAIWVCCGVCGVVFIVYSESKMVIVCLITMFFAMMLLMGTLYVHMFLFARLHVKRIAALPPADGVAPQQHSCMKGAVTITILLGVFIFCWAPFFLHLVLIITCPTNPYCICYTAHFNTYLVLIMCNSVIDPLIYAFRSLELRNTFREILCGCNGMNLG
# ASSAY METHOD TEXT: cAMP stimulation in heterologous cells expressing human MC3R
# MEASUREMENT PARAMETERS: cAMP, heterologous cells

[ask] Lab request: please report EC50 under test system hMC3R (Homo sapiens, UniProt P41968) for N=C(N)NCCC[C@H](NC(=O)[C@@H](Cc1cccc2ccccc12)NC(=O)[C@H](Cc1c[nH]cn1)NC(=O)CCCc1ccccc1)C(=O)N[C@@H](Cc1c[nH]c2ccccc12)C(N)=O [LK-467, Ph(CH2)3CO-His-(D-1-Nal)-Arg-Trp-NH2]
[reply] 0.0324 µM

[ask] Value wanted: EC50 (hMC3R (Homo sapiens, UniProt P41968)) of entry N=C(N)NCCC[C@H](NC(=O)[C@@H](Cc1ccccc1)NC(=O)[C@H](Cc1c[nH]cn1)NC(=O)CCCc1ccccc1)C(=O)N[C@@H](Cc1c[nH]c2ccccc12)C(N)=O [LK-184, Ph(CH2)3CO-His-(D-Phe)-Arg-Trp-NH2]
[reply] 0.0227 µM

[ask] For the record CNC(=O)[C@H](CCCNC(=N)N)NC(=O)[C@@H](Cc1ccc(-c2ccccc2)cc1)NC(=O)[C@H](Cc1c[nH]cn1)NC(=O)CCCc1ccccc1 [LK-513, Ph(CH2)3CO-His-(D-4-Bip)-Arg-NHMe] , what value of EC50 is listed for hMC3R (Homo sapiens, UniProt P41968)?
[reply] > 10 µM

[ask] Hello, I am looking for reported EC50 with hMC3R (Homo sapiens, UniProt P41968) for N=C(N)NCCC[C@H](NC(=O)[C@@H](Cc1ccc(-c2ccccc2)cc1)NC(=O)[C@H](Cc1c[nH]cn1)NC(=O)CCCc1ccccc1)C(N)=O [LK-511, Ph(CH2)3CO-His-(D-4-Bip)-Arg-NH2] . Could you help?
[reply] > 10 µM

[ask] Enter reported EC50 observed with hMC3R (Homo sapiens, UniProt P41968) for CC(C)(C)c1ccc(C[C@@H](NC(=O)[C@H](Cc2c[nH]cn2)NC(=O)CCCc2ccccc2)C(=O)N[C@@H](CCCNC(=N)N)C(N)=O)cc1 [LK-514, Ph(CH2)3CO-His-(D-4-tBuPhe)-Arg-NH2]
[reply] > 10 µM

---

# TARGET SYSTEM: hMC5R (Homo sapiens)
# Sequence (P33032 whole entry): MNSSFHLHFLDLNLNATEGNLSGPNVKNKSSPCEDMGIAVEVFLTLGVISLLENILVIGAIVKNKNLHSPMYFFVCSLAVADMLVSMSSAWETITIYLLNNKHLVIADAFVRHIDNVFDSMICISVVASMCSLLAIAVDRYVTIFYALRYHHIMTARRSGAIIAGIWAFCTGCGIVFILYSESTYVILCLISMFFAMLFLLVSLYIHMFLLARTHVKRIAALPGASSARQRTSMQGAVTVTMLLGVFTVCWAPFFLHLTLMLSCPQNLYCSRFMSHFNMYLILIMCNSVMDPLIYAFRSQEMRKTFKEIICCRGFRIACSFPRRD
# ASSAY METHOD TEXT: cAMP stimulation in heterologous cells expressing human MC5R
# MEASUREMENT PARAMETERS: cAMP, heterologous cells
VALUE KIND: pEC50
Convention used: pEC50 is expressed as -log10 of the molar concentration.

[ask] Param readout = pEC50; param system = hMC5R (Homo sapiens); param query = N=C(N)NCCC[C@H](NC(=O)[C@@H](Cc1cccc2ccccc12)NC(=O)[C@H](Cc1c[nH]cn1)NC(=O)CCCc1ccccc1)C(=O)N[C@@H](Cc1c[nH]c2ccccc12)C(N)=O [LK-467, Ph(CH2)3CO-His-(D-1-Nal)-Arg-Trp-NH2] ; response: value
[reply] 6.91

---

# TARGET SYSTEM: UniProtKB P32245
# Sequence (P32245 whole entry): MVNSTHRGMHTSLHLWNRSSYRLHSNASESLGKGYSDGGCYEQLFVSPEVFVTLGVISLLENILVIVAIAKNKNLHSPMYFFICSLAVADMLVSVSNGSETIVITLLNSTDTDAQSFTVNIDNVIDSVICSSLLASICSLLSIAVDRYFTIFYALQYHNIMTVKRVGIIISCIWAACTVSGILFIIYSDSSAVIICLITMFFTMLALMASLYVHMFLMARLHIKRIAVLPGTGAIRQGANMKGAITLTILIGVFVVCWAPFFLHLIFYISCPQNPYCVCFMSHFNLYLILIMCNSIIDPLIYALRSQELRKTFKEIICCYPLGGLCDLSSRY
# ASSAY METHOD TEXT: cAMP stimulation in heterologous cells expressing human MC4R
# MEASUREMENT PARAMETERS: cAMP, heterologous cells
VALUE KIND: EC50

Here's what some known entries look like.
CNC(=O)[C@H](CCCNC(=N)N)NC(=O)[C@@H](Cc1ccc(-c2ccccc2)cc1)NC(=O)[C@H](Cc1c[nH]cn1)NC(=O)CCCc1ccccc1 [LK-513, Ph(CH2)3CO-His-(D-4-Bip)-Arg-NHMe]; > 10 µM
N=C(N)NCCC[C@H](NC(=O)[C@@H](Cc1cccc2ccccc12)NC(=O)[C@H](Cc1c[nH]cn1)NC(=O)CCCc1ccccc1)C(=O)N[C@@H](Cc1c[nH]c2ccccc12)C(N)=O [LK-467, Ph(CH2)3CO-His-(D-1-Nal)-Arg-Trp-NH2]; 0.0181 µM
N=C(N)NCCC[C@H](NC(=O)[C@@H](Cc1ccc(-c2ccccc2)cc1)NC(=O)[C@H](Cc1c[nH]cn1)NC(=O)CCCc1ccccc1)C(N)=O [LK-511, Ph(CH2)3CO-His-(D-4-Bip)-Arg-NH2]; > 10 µM

[ask] Field request: EC50 | item: CC(C)(C)c1ccc(C[C@@H](NC(=O)[C@H](Cc2c[nH]cn2)NC(=O)CCCc2ccccc2)C(=O)N[C@@H](CCCNC(=N)N)C(N)=O)cc1 [LK-514, Ph(CH2)3CO-His-(D-4-tBuPhe)-Arg-NH2]
[reply] > 10 µM

---

EC50 by entry:
# TARGET SYSTEM: UniProtKB P33032
# ASSAY METHOD TEXT: cAMP stimulation in heterologous cells expressing human MC5R
# MEASUREMENT PARAMETERS: cAMP, heterologous cells

Sample answers from the record:
CC(C)(C)c1ccc(C[C@@H](NC(=O)[C@H](Cc2c[nH]cn2)NC(=O)CCCc2ccccc2)C(=O)N[C@@H](CCCNC(=N)N)C(N)=O)cc1 [LK-514, Ph(CH2)3CO-His-(D-4-tBuPhe)-Arg-NH2]; > 10 µM
N=C(N)NCCC[C@H](NC(=O)[C@@H](Cc1ccccc1)NC(=O)[C@H](Cc1c[nH]cn1)NC(=O)CCCc1ccccc1)C(=O)N[C@@H](Cc1c[nH]c2ccccc12)C(N)=O [LK-184, Ph(CH2)3CO-His-(D-Phe)-Arg-Trp-NH2]; 0.262 µM

API: the following record is the query input.
[ask] EC50 lookup needed for N=C(N)NCCC[C@H](NC(=O)[C@@H](Cc1ccc(-c2ccccc2)cc1)NC(=O)[C@H](Cc1c[nH]cn1)NC(=O)CCCc1ccccc1)C(N)=O [LK-511, Ph(CH2)3CO-His-(D-4-Bip)-Arg-NH2] , thanks.
[reply] > 10 µM
